Origin of values: the supplement of paper PMC8498969

# System: HEK293
# Test Summary: maximal inhibition of ZIKV NS1 production (% inhibition); higher = stronger antiviral effect

# Chemical Smiles, maximal inhibition
measured = [
    ("Nc1nc(F)nc2c1ncn2[C@@H]1O[C@H](CO)[C@@H](O)[C@H]1O", 98),
    ("Nc1c2ccccc2nc2ccccc12", 102),
    ("OC[C@H](Cc1ccccc1)Nc1nc(Oc2ccc3c(c2)CCC3)nc2c1ncn2Cc1ccc(-c2ccccc2)cc1", 100),
    ("C[C@@H]1O[C@@H](O[C@H]2C[C@@H](O)[C@]3(CO)[C@H]4[C@H](O)C[C@]5(C)[C@@H](C6=CC(=O)OC6)CC[C@]5(O)[C@@H]4CC[C@]3(O)C2)[C@H](O)[C@H](O)[C@H]1O", 102),
    ("Cc1n[nH]c2ccc(-c3cncc(OC[C@@H](N)Cc4c[nH]c5ccccc45)c3)cc12", 103),
    ("Cc1[nH]nc2ccc(-c3cncc(OC[C@@H](N)Cc4ccccc4)c3)cc12", 97),
]
